Just for reference, patent US5225528A is where these values come from.

# Assay target: AVP-V2 sites (Rattus norvegicus)
# Construct: male rat liver (AVP-V1 sites) or kidney medulla (AVP-V2 sites); from tissue; host or cells: male rat kidney medulla, crude membranes
# Sequence (Q00788 whole entry): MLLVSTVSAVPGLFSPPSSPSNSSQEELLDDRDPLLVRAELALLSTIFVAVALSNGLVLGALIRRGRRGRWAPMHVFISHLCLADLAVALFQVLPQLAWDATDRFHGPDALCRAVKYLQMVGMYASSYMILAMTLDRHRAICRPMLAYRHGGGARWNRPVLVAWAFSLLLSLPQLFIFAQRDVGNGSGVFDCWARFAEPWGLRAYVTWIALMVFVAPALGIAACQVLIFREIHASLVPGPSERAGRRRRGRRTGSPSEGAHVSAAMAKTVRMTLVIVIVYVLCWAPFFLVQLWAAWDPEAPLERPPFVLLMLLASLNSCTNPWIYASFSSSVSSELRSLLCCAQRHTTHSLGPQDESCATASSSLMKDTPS
# Method summary: [^3 H]AVP binding to crude membrane preparation of male rat kidney medulla (AVP-V2 sites)
# Condition summary: rat kidney medulla membranes, 2 nM [^3 H]AVP; read-out: Receptor Binding Results IC50 (nM) [^3 H]-AVP-V2
# Description: Nonspecific binding (5-10% of the total binding) was determined using 10 μM unlabeled AVP, and the binding reaction was terminated by filtration as described above for the [^3 H]OT binding assay.
Square brackets hold non-standard residues; d marks the D form. Peptide text beside a SMILES is read from it. * marks the point of attachment. dNMeF = CN[C@H](Cc1ccccc1)C(=O)O; dOrn = NCCC[C@@H](N)C(=O)O; Pip = O=C(O)[C@@H]1CCCCN1; dPip = O=C(O)[C@H]1CCCCN1; Cbz = O=C(OCc1ccccc1)*
In this section we review reported IC50 values for a set of molecules.

{"columns": ["Molecule", "IC50"],
 "data": [
  ["CC[C@H](C)[C@@H]1NC(=O)[C@@H](Cc2c[nH]c3ccccc23)NC(=O)[C@@H]2CCCN2C(=O)[C@@H](Cc2ccccc2)N(C)C(=O)[C@H](CCCCNC(=O)OCc2ccccc2)NC(=O)[C@H]2CCCCN2C1=O [Example 35] (cyclo(I[dPip]K(Cbz)[dNMeF]P[dW]))", "10000 nM"]
]}

Let us examine a further case.
I looked up CC[C@H](C)[C@@H]1NC(=O)[C@@H](Cc2ccccc2)NC(=O)[C@@H]2CCCN2C(=O)[C@@H](CCCNC(=O)OCc2ccccc2)NC(=O)[C@@H]2CCCCN2C(=O)[C@H]2CCCCN2C1=O [Example 27] (cyclo(I[dPip][Pip][dOrn](Cbz)P[dF])) and its IC50 for AVP-V2 sites (Rattus norvegicus) was 10000 nM

----------
# Assay target: AVP-V2 sites (Rattus norvegicus)
# Construct: male rat liver (AVP-V1 sites) or kidney medulla (AVP-V2 sites); from tissue; host or cells: male rat kidney medulla, crude membranes
# Method summary: [^3 H]AVP binding to crude membrane preparation of male rat kidney medulla (AVP-V2 sites)
# Condition summary: 0.5 h, @ 1,000 (nM); read-out: [^3 H]-AVP-V2: percent inhibition of radioligand at the given concentration
Numbered stars: 1 amine (or outer) side, 2 acyl side, 3 side chain; on linkers, the order of the positions; unused ones are H or OH. Square brackets hold non-standard residues; d marks the D form. Peptide text beside a SMILES is read from it. * marks the point of attachment. dPip(4-aza,4-Cbz) = O=C(O)[C@H]1CN(C(=O)OCc2ccccc2)CCN1; X2 = O=C(OCc1ccccc1)N1CCN([*:1])[C@H](C(=O)[*:2])C1; dPiz(1,6-dehydro) = O=C(O)[C@H]1CCC=NN1; d2Nal = N[C@H](Cc1ccc2ccccc2c1)C(=O)O; dNMeF = CN[C@H](Cc1ccccc1)C(=O)O; dPip = O=C(O)[C@H]1CCCCN1; Boc = CC(C)(C)OC(=O)*
Measurement type: inhibition at 1 µM (%)
The reply should contain only the number, in %.

{"columns": ["Molecule", "Measured number"],
 "data": [
  ["CC[C@H](C)[C@@H]1NC(=O)[C@@H](Cc2ccc3ccccc3c2)NC(=O)[C@@H]2CCCN2C(=O)[C@@H](Cc2ccccc2)N(C)C(=O)[C@H](CCCCN)NC(=O)[C@H]2CCCCN2C1=O [Example 140] (cyclo([d2Nal]I[dPip]K[dNMeF]P))", 84],
  ["CC[C@H](C)[C@@H]1NC(=O)[C@@H](Cc2c[nH]c3ccccc23)NC(=O)[C@@H]2CCCN2C(=O)[C@@H](Cc2ccccc2)N(C)C(=O)[C@@H]2CN(C(=O)OCc3ccccc3)CCN2C(=O)[C@H]2CCC=NN2C1=O [Example 168] (cyclo(I[dPiz(1,6-dehydro)][X2][dNMeF]P[dW]))", 54],
  ["CC[C@H](C)[C@@H]1NC(=O)[C@@H](Cc2ccc3ccccc3c2)NC(=O)[C@@H]2CCCN2C(=O)[C@@H](Cc2c[nH]cn2)NC(=O)[C@@H]2CN(C(=O)OCc3ccccc3)CCN2C(=O)[C@H]2CCCCN2C1=O [Example 158] (cyclo(I[dPip][X2][dH]P[d2Nal]))", 68],
  ["CC[C@H](C)[C@@H]1NC(=O)[C@@H](Cc2ccc3ccccc3c2)NC(=O)[C@@H]2CCCN2C(=O)[C@@H](Cc2c[nH]cn2)NC(=O)[C@H]2CN(C(=O)OCc3ccccc3)CCN2C(=O)[C@H]2CCCCN2C1=O [Example 160] (cyclo(I[dPip][dPip(4-aza,4-Cbz)][dH]P[d2Nal]))", 66],
  ["CC[C@H](C)[C@@H]1NC(=O)[C@@H](Cc2ccc3ccccc3c2)NC(=O)[C@@H]2CCCN2C(=O)[C@@H](Cc2ccccc2)N(C)C(=O)[C@H](CCCCNC(=O)OC(C)(C)C)NC(=O)[C@H]2CCCCN2C1=O [Example 138] (cyclo(I[dPip]K(Boc)[dNMeF]P[d2Nal]))", 42]
]}

// below: inhibition at 1 µM requested for another molecule
Reported inhibition at 1 µM ( CC[C@H](C)[C@@H]1NC(=O)[C@@H](Cc2ccc(OC)cc2)NC(=O)[C@@H]2CCCN2C(=O)[C@@H](Cc2ccccc2)N(C)C(=O)[C@H](CCCCN)NC(=O)[C@H]2CCCCN2C1=O [Example 150] (cyclo(I[dPip]K[dNMeF]P[dY](Me))) ) = 62
